System: PRKD3
Set-up: species or system human, MV4-11 + K-562 + COLO205 + SK-N-BE2 + OVCAR-8
reported.conditions: read-out: apparent Kd; compound concentrations:100 nM and 1000 nM (sheet 'Samples'); n = 1
Quick list: potency estimated from few doses per entry.
Answer format: number, then unit.

Previously resolved entries follow.
{"columns": ["compound", "meas.value"],
 "data": [
  ["c1ccc(-c2n[nH]cc2-c2ccnc(-c3ccc(CNC4CCOCC4)cc3)c2)nc1 [GW709213X]", "0.193 µM"],
  ["Cc1ccc2c(-c3ccncc3)c(-c3ccc(F)cc3)nn2c1.Cl [GW461484A]", "2.11 µM"],
  ["Cc1cc(Nc2nc(-c3cccc(C)n3)nc3ccccc23)ccn1 [GW872411X]", "0.00625 µM"],
  ["c1ccc(-c2n[nH]cc2-c2ccnc(-c3ccc(OCCN4CCOCC4)cc3)c2)nc1 [GW695874X]", "1.46 µM"],
  ["Cc1cccc(Nc2nc(N[C@H]3CCNC3)ncc2C(N)=O)c1.Cl [GSK2197149A]", "1.89 µM"],
  ["CC(C)Oc1ccc2c(-c3ccnc(Nc4ccc(N5CCN(C)CC5)cc4)n3)cnn2n1 [GW696155X]", "1.11 µM"],
  ["O=C(O)C(F)(F)F.O=c1[nH]ccc2nc(N[C@@H]3CCNC3)nc(Nc3cc(Cl)cc(Cl)c3)c12 [GSK2188764A]", "1.47 µM"],
  ["Cc1cccc(-c2nc(Nc3ccc4ncsc4c3)c3ccccc3n2)n1 [GW867588X]", "0.0748 µM"]
]}

Enquiry: Quick one: potency estimated from few doses of Cc1csc(-c2nc(Nc3ccncc3)c3ccccc3n2)n1 [GW869640X] ?
Return: 0.504 µM

Enquiry: Follow-up item: Cc1cccc(-c2nc(Nc3ccncc3)c3sccc3n2)n1 [GW869641X]
Return: 0.00356 µM

Enquiry: Follow-up item: Cc1cccc(-c2nc(Nc3ccc4[nH]ncc4c3)c3ccccc3n2)n1 [GW857175X]
Return: 0.0355 µM

Enquiry: Follow-up item: CN(C)CCOc1ccc(-c2cc(-c3c[nH]nc3-c3ccccn3)ccn2)cc1 [GW835314X]
Return: 0.0528 µM

Enquiry: Follow-up item: Cc1cccc(-c2cc(Nc3ccncc3)c3ccccc3n2)n1 [GSK223675A]
Return: 0.59 µM

Enquiry: Follow-up item: COc1ccc2nc(-c3cccc(C)n3)nc(Nc3ccncc3)c2c1
Return: 0.00821 µM

* * *

Test system: PIK3C2A
Set-up: species or system human, MV4-11 + K-562 + COLO205 + SK-N-BE2 + OVCAR-8
reported.conditions: read-out: apparent Kd; compound concentrations:100 nM and 1000 nM (sheet 'Samples'); n = 1
Lab note - cut at 2000 nM for potency estimated from few doses: T if strictly below, F if not.

{"columns": ["compound", "label.value"],
 "data": [
  ["Nc1nc(N)c2nc(-c3ccccc3)[nH]c2n1 [SKF-12778]", "F"]
]}

Enquiry: Please state whether potency estimated from few doses is below 2000 nM for Nc1c(C(=O)c2ccccc2)cnn1-c1ccc(F)cc1 [RO1151246-000]
Return: T

Enquiry: Follow-up item: O=C1NC(=O)C(c2ccc(Cl)cc2)=C1Nc1cccc(Cl)c1 [SB-317651]
Return: F

Enquiry: Follow-up item: O=c1cc(N2CCOCC2)nc2n(Cc3cccc(F)c3)ccn12 [GSK2297430A]
Return: F

Enquiry: Follow-up item: CCCC(=O)Nc1n[nH]c2ncccc12 [SB-601436]
Return: F

* * *

Test system: TAOK1
Parameters: species or system human, MV4-11 + K-562 + COLO205 + SK-N-BE2 + OVCAR-8
reported.conditions: read-out: apparent Kd; compound concentrations:100 nM and 1000 nM (sheet 'Samples'); n = 1
quantity.name: potency estimated from few doses (µM)
Kindly provide the numeric value in µM only, without the unit symbol.

{"columns": ["molecule", "output.unit", "potency estimated from few doses"],
 "data": [
  ["CC(C)Oc1ccc2c(-c3ccnc(Nc4ccc(N5CCN(C)CC5)cc4)n3)cnn2n1 [GW696155X]", "µM", 1.58]
]}

Enquiry: Hello, I am looking for reported potency estimated from few doses with TAOK1 for Nc1nc(-c2ccccn2)c(-c2ccnc3ccccc23)s1 [GW548057X] . Could you help?
Return: 1.7

Enquiry: Follow-up item: NC(=O)c1cc(-c2ccccc2)cc2c(C3CCNCC3)c[nH]c12 [GSK301362A]
Return: 1.5

Enquiry: Follow-up item: O=S(=O)(c1ccc(-c2ccnc3[nH]ccc23)cc1)N1CCCC1 [GSK846226A]
Return: 1.69

Enquiry: Follow-up item: Fc1ccc(-c2c(-c3ccncc3)[nH]c3nccnc23)cc1 [RO1155697-000]
Return: 1.15

Enquiry: Follow-up item: CN1C[C@@H]2Cn3c(c(C4=C(c5cn(C)c6ccccc56)C(=O)NC4=O)c4ccccc43)C[C@H]2C1.Cl [RO0320234-001]
Return: 1.35

* * *

System: CSNK2A2
Design: species or system human, MV4-11 + K-562 + COLO205 + SK-N-BE2 + OVCAR-8
reported.conditions: read-out: apparent Kd; compound concentrations:100 nM and 1000 nM (sheet 'Samples'); n = 1
1 means recorded potency estimated from few doses is 300 nM or above; 0 means it is below 300 nM.

{"columns": ["compound", "label.value"],
 "data": [
  ["COc1cccc(-n2ncc3c(N/N=C/c4ccncc4)ncnc32)c1 [GW784752X]", 0]
]}

Enquiry: Reported potency estimated from few doses at or above 300 nM? CC(C)COC(=O)c1ccc2c(c1)/C(=C/Nc1ccc(S(N)(=O)=O)cc1)C(=O)N2 [GW416981X]
Return: 0

Enquiry: Follow-up item: O=C(O)C(F)(F)F.O=c1[nH]ccc2nc(N[C@@H]3CCNC3)nc(Nc3cc(Cl)cc(Cl)c3)c12 [GSK2188764A]
Return: 1

Enquiry: Follow-up item: Cc1ccc2c(-c3ccncc3)c(-c3ccc(F)cc3)nn2c1.Cl [GW461484A]
Return: 1

Enquiry: Follow-up item: O=C(Nc1n[nH]c2nc(-c3ccc(O)cc3)ccc12)C1CC1
Return: 1

Enquiry: Follow-up item: COc1cc(/C=N/Nc2ncnc3[nH]ncc23)ccc1O [GW578748X]
Return: 1

Enquiry: Follow-up item: Nc1nc(N)c2nc(-c3ccccc3)[nH]c2n1
Return: 1

Enquiry: Follow-up item: CN(C)CC(O)COc1ccc(Nc2nccc(-c3cnn4nc(N5CCOCC5)ccc34)n2)cc1 (centres unmarked) [GW767488X]
Return: 0

* * *

System: CDKL5
Set-up: species or system human, MV4-11 + K-562 + COLO205 + SK-N-BE2 + OVCAR-8
reported.conditions: read-out: apparent Kd; compound concentrations:100 nM and 1000 nM (sheet 'Samples'); n = 1
quantity.name: potency estimated from few doses (nM)
Kindly provide the numeric value in nM only, without the unit symbol.

Previously resolved entries follow.
{"columns": ["compound", "potency estimated from few doses [nM]"],
 "data": [
  ["COc1ccc2c(-c3ccnc(Nc4cccc(OC(F)(F)F)c4)n3)cnn2n1 [GW810372X]", 1850],
  ["CC(C)(CO)CNC(=O)c1ccc2c(c1)/C(=N/Nc1ccc(S(N)(=O)=O)cc1)C(=O)N2 [GW301784X]", 172],
  ["CN(C)CCCC(=O)Nc1n[nH]c2nnc(-c3ccccc3)cc12.Cl", 4.6],
  ["CC(C)c1nc(-c2ccc(F)c(NS(=O)(=O)c3c(F)cccc3F)c2)c(-c2ccnc(Nc3ccc(N4CCOCC4)nc3)n2)s1 [GSK1804250A]", 984],
  ["CC(C)COC(=O)c1ccc2c(c1)/C(=C/Nc1ccc(S(N)(=O)=O)cc1)C(=O)N2 [GW416981X]", 1290]
]}

Enquiry: Quick one: potency estimated from few doses of CC(=O)c1c(-c2ccncc2)[nH]c(-c2ccncc2)c1C [GW493036X] ?
Return: 1670

Enquiry: Follow-up item: O=C1NC(=O)C(N2CCc3ccccc32)=C1c1ccccc1Cl
Return: 1390

Enquiry: Follow-up item: O=C(Nc1n[nH]c2cc(-c3ccsc3)ccc12)C1CC1
Return: 1820

Enquiry: Follow-up item: Cc1cc(NC(=O)c2cccc(NC(=O)/C=C/CN(C)C)c2)ccc1Nc1nccc(-c2cccnc2)n1
Return: 958

* * *

Test system: EGFR
Design: species or system human, MV4-11 + K-562 + COLO205 + SK-N-BE2 + OVCAR-8
reported.conditions: read-out: apparent Kd; compound concentrations: 100 nM and 1000 nM (sheet 'Samples'), CATDS: 1; n = 1
quantity.name: potency estimated from few doses (nM)
Kindly provide the numeric value in nM only, without the unit symbol.

Previously resolved entries follow.
{"columns": ["compound", "potency estimated from few doses / nM"],
 "data": [
  ["COc1cc2ncnc(Nc3ccc(OCc4ccccc4Br)c(Cl)c3)c2cc1OC.Cl [GI261590A]", 2230],
  ["Cl.c1ccc(Cn2ncc3cc(Nc4ncnc5ccccc45)ccc32)cc1 [GW273749A]", 25.4]
]}

Enquiry: Quick one: potency estimated from few doses of O=C(O[C@H]1CN[C@H](C#Cc2cc3ncnc(Nc4ccc(OCc5cccc(F)c5)c(Cl)c4)c3s2)C1)N1CCOCC1 [GW869810X] ?
Return: 72.2

Enquiry: Follow-up item: Fc1cccc(COc2ccc(Nc3ncnc4sc(-c5ccc[nH]5)cc34)cc2Cl)c1 [GW707818B]
Return: 1030

Enquiry: Follow-up item: Fc1cccc(COc2ccc(Nc3ncnc4sc(-c5ccco5)cc34)cc2Cl)c1 [GSK969786A]
Return: 815

Enquiry: Follow-up item: CCNC(=O)O[C@H]1CN[C@H](C#Cc2cc3ncnc(Nc4ccc(OCc5cccc(F)c5)c(Cl)c4)c3s2)C1 [GSK192082A]
Return: 177

Enquiry: Follow-up item: O=C(O)C(F)(F)F.O=C(O[C@H]1CN[C@H](C#Cc2cc3ncnc(Nc4ccc5c(ccn5Cc5cc(F)ccc5F)c4)c3s2)C1)N1CCOCC1 [GSK259178A]
Return: 277

Enquiry: Follow-up item: Nc1ccc(C#Cc2cncnc2Nc2ccc(OCc3cccc(F)c3)c(Cl)c2)cc1 [GW659893X]
Return: 404

Each recorded value in this set is attributed to paper PMC11062922.
